molecular target: Telomerase reverse transcriptase (Homo sapiens, UniProt O14746); test: Ability to inhibit human telomerase in a modified cell-free TRAP assay using extracts from A2780 cell line
Sequence (O14746 whole entry): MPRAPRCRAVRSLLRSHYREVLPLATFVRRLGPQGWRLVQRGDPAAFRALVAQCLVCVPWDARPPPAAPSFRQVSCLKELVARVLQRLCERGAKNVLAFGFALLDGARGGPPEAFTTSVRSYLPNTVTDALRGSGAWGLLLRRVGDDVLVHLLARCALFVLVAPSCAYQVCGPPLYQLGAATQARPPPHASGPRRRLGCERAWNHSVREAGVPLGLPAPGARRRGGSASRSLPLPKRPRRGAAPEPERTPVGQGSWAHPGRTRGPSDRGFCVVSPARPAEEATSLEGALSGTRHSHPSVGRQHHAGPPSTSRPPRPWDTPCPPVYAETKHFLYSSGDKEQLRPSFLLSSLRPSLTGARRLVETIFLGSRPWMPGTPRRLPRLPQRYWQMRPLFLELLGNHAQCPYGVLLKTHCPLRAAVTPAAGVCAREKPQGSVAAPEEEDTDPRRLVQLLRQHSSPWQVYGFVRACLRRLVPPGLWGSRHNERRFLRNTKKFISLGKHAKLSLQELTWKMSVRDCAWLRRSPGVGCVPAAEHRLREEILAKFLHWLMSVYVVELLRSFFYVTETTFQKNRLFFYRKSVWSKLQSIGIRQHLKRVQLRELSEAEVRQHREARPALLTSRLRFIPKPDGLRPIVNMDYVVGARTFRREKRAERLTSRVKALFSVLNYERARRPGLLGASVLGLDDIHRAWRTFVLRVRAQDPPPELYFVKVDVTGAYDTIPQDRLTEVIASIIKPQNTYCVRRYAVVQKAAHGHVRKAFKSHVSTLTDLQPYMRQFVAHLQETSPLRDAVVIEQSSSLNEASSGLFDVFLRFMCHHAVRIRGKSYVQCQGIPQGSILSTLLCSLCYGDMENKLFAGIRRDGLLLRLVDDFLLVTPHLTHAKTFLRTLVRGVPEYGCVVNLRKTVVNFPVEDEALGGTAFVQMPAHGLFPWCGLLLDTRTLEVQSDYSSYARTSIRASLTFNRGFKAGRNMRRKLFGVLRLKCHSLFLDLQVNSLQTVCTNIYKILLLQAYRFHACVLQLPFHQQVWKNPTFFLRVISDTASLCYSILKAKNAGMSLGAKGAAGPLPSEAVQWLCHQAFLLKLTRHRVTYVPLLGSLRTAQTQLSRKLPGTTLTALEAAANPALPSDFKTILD
measurement_label: IC50 (µM)

Solved cases below.
{"compound": "O=C(CCN1CCCCC1CO)Nc1ccc2cc3ccc(NC(=O)CCN4CCCCC4CO)cc3nc2c1 (centres undefined)", "value_units": "µM", "number": 5.4}
{"compound": "CC1CCCN(CCC(=O)Nc2ccc3cc4ccc(NC(=O)CCN5CCCC(C)C5)cc4nc3c2)C1 (centres undefined)", "value_units": "µM", "number": 4.4}
{"compound": "CN(C)CCC(=O)Nc1ccc2cc3ccc(NC(=O)CCN(C)C)cc3nc2c1", "value_units": "µM", "number": 8.2}

I. CC1CCN(CCC(=O)Nc2ccc3cc4ccc(NC(=O)CCN5CCC(C)CC5)cc4nc3c2)CC1
II. O=C(CCN1CCCCCC1)Nc1ccc2cc3ccc(NC(=O)CCN4CCCCCC4)cc3nc2c1
Request: Hi, I'm comparing I with II and wondering which one has the bigger number for IC50. Any idea? Identify your selection by its label.
Response: II

----------
target: DNA polymerase I, thermostable (Thermus aquaticus) (UniProt P19821); experiment: Ability to inhibit Taq polymerase in vitro at a concentration of 10 uM; NI means No inhibition
Sequence (P19821 whole entry): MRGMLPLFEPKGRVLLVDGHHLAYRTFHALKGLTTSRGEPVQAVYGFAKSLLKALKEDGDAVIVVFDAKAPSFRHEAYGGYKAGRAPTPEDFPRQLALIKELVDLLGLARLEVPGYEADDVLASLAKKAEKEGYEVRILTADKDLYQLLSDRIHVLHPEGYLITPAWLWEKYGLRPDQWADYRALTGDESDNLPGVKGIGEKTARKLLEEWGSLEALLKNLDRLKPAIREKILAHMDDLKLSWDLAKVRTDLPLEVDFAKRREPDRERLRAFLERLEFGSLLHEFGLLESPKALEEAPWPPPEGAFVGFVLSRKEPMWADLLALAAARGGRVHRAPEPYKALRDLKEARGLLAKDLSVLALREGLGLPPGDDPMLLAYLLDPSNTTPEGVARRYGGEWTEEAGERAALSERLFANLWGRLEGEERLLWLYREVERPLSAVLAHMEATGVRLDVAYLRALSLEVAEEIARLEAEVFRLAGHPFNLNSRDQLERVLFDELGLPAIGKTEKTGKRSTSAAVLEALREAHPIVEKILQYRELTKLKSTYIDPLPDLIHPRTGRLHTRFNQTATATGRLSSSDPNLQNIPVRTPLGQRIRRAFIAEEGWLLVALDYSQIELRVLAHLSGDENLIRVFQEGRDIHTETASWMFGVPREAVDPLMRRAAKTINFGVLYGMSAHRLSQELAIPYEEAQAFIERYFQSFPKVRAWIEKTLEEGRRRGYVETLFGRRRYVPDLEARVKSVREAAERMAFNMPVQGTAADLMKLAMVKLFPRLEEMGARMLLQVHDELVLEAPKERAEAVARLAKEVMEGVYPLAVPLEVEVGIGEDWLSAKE
Calls of active or inactive are those of the source. The rule behind the calls is not given here.
measurement_label: inhibition

Solved cases below.
{"compound": "CC1CCN(CCC(=O)Nc2ccc3cc4ccc(NC(=O)CCN5CCC(C)CC5)cc4nc3c2)CC1", "inhibition": "inactive"}
{"compound": "O=C(CCN1CCCCCC1)Nc1ccc2cc3ccc(NC(=O)CCN4CCCCCC4)cc3nc2c1", "inhibition": "inactive"}
{"compound": "CCN(CC)CCC(=O)Nc1ccc2cc3ccc(NC(=O)CCN(CC)CC)cc3nc2c1", "inhibition": "inactive"}
{"compound": "O=C(CCN1CCCCCCC1)Nc1ccc2cc3ccc(NC(=O)CCN4CCCCCCC4)cc3nc2c1", "inhibition": "inactive"}
{"compound": "O=C(CCN1CCOCC1)Nc1ccc2cc3ccc(NC(=O)CCN4CCOCC4)cc3nc2c1", "inhibition": "inactive"}
{"compound": "CCC1CCCCN1CCC(=O)Nc1ccc2cc3ccc(NC(=O)CCN4CCCCC4CC)cc3nc2c1 (configuration not stated)", "inhibition": "inactive"}

Now for another entry.
Request: Bench note: what inhibition did O=C(CCN1CCCC1)Nc1ccc2cc3ccc(NC(=O)CCN4CCCC4)cc3nc2c1 show?
Response: inactive

----------
Parameter: IC50. Scope: all listed entries.
system: CH1; experiment: In vitro cytotoxicity against human ovarian carcinoma cell line CH1 using sulforhodamine B (SRB) assay; type: functional, cell-based
Give the value in µM but do not write µM after it.

Request: Which measured IC50 belongs to O=C(CCN1CCCCC1CCO)Nc1ccc2cc3ccc(NC(=O)CCN4CCCCC4CCO)cc3nc2c1 (stereo unspecified) , tested on CH1?
Response: 11

----------
test system: SK-OV-3; assay: In vitro cytotoxicity against human ovarian carcinoma cell line SKOV-3 using sulforhodamine B (SRB) assay; format: functional, cell-based
Parameter: pIC50. Scope: all listed entries.
Recall that pIC50 is obtained by taking minus log10 of the concentration measured in molar.

Solved cases below.
{"compound": "O=C(CCN1CCCCC1)Nc1ccc2cc3ccc(NC(=O)CCN4CCCCC4)cc3nc2c1", "pIC50": 6.27}
{"compound": "O=C(CCN1CCC(O)CC1)Nc1ccc2cc3ccc(NC(=O)CCN4CCC(O)CC4)cc3nc2c1", "pIC50": 4.89}
{"compound": "CC1CCCCN1CCC(=O)Nc1ccc2cc3ccc(NC(=O)CCN4CCCCC4C)cc3nc2c1 (stereo not given)", "pIC50": 5.47}
{"compound": "O=C(CCN1CCCC1)Nc1ccc2cc3ccc(NC(=O)CCN4CCCC4)cc3nc2c1", "pIC50": 5.59}

Request: Bench note: what pIC50 did O=C(CCN1CCCCCC1)Nc1ccc2cc3ccc(NC(=O)CCN4CCCCCC4)cc3nc2c1 show?
Response: 5.60
